Data origin, for the record: patent US11377442B2

# SUBJECT OF TEST: NR2F6 (Homo sapiens, UniProt P10588)
# Construct: expressed in transfected cells; also transient transfection
# Sequence (P10588 whole entry): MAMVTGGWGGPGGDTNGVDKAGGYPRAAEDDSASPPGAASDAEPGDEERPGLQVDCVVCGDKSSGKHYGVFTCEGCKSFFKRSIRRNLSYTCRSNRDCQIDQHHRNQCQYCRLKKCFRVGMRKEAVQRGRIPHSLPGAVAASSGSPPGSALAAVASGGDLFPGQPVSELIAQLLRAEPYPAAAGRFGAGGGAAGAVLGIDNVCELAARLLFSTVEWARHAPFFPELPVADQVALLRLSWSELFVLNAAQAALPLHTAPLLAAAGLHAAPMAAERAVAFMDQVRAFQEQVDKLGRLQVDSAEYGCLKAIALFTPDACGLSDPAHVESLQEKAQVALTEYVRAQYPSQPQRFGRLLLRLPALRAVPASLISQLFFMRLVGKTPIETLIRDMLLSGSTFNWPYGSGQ
# ASSAY COMMENT: NR2F6 agonist screening, Firefly signal cmpd/DMSO
# Type: cell-based
# RUN CONDITIONS: 1% FBS; 10 uM
ENDPOINT NAME: F4, Firefly/Renilla for S/B(F4) > 3

CC(C)CCN[C@H]1CS(=O)(=O)C[C@@H]1S(=O)(=O)c1cccs1: 2.5

[a] O=S1(=O)C[C@H](NC2CCCCC2)[C@@H](S(=O)(=O)c2ccc(Cl)cc2)C1
[b] C[C@@H]1C[C@H](C)CN([C@H]2CS(=O)(=O)C[C@@H]2S(=O)(=O)c2cccs2)C1
a or b : whose F4, Firefly/Renilla for S/B(F4) > 3 is greater? Respond with the label that goes with your answer.
b
